measurement.notes: soluble on expression in E. coli; label from the status in PepcDB or PDB records
value.type: soluble on expression in E. coli

seq.string	result
MMDYPSIDTLLESAHIVTLPMKYPFMGLSERQAVLFEGPNSWAEYSPFMGCNDTRMWLASAIEYGWGNTNVLSVPNLDLDNTNFASRSKYGYIANPQTSNKDHSDNKRFYTQTKNHREIPVNAILPDIPASKMSEILGKDLQGCKCVKIKVGKHFQDRDIHRIRAVLDFMGADTMLRLDANCKWNVSETLNNLDVLEDNDLLENVSYIEQPCRTTRELITLKQKMDTRGYVTKIAIDESLRDLLLHWQKNRKWSNNSGITYTTELRETLSACDMLVLKLQPMGGMRAVADLLESIKNNIKVNVGYTVSSSLETSLGIEMGLALALNLPNITLPVGLATAGLLDADITDDPLLPNKGYITPRKIEVNKKLLNRYAADKRHVVWWHRRIRAAHRALFQDLSD	soluble
MSLFLMDQYIKVDITVEENEQERIMAELLAIGFDSFAEHANMLEAYVEKSAFSEADLKEVLHEVNPAYTYTFAEMPNINWNEEWEKNFDPLVIANQCYVRASFHAERPEFQYEVVINPKMSFGTGHHAEGHHHHHH	soluble
MRAIDLNSDLGESFGAWSMGDDAAMLDIVTSANVACGFHAGDPAGILRTLKAAAAKNVTIGAHVSYPDKVGFGRRNMDVASDELTADVIYQIGSLQGLAKAAGTSVRYVKPHGALYNTIAHDRRQAMAVIEAIRAIDPALVLVALAGSTLIELARSEGLQCIAEAFADRAYTPQGTLVSRREPGAVLHDPELVAQRMLRLVQSGSIEAIDGSLVRIEADSICVHGDSPAAVEMARELRRVLEQASTSLQPFAGKRS	soluble

Values were extracted from the DeepSol protein solubility set.
